- test_system: wt human JAK1, catalytic site (Homo sapiens)
- Construct: wt human JAK1, catalytic site
- Sequence (P23458 875-1153 limits assumed): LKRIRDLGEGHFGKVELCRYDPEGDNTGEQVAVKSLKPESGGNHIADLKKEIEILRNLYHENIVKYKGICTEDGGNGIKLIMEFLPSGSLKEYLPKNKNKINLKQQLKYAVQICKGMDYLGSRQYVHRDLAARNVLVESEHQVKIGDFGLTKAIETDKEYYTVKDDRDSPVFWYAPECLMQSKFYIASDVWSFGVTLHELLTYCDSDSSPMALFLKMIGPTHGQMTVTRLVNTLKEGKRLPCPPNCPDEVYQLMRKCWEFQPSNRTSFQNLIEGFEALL
- method: HTRF KinEASE assay, JAK1
- applied_conditions: 2.5 μM ATP; read-out: IC50, Activity Toward JAK1
In this section, each of the compounds is paired with its reported IC50.

Would you please look over these solved cases?
>  <compound>
Cc1cnn(-c2ccc(Nc3cn(-c4c(Cl)cccc4Cl)nc3C(N)=O)cc2)c1C

>  <test_system>
wt human JAK1, catalytic site (Homo sapiens)

>  <IC50>
100 to 1000 nM

$$$$
>  <compound>
CCNC(=O)c1ccc(Nc2cn(-c3c(F)cccc3Cl)nc2C(N)=O)cc1

>  <test_system>
wt human JAK1, catalytic site (Homo sapiens)

>  <IC50>
10 to 100 nM

$$$$

Data request: Given NC(=O)c1nn(-c2c(Cl)cccc2Cl)cc1Nc1ccn(-c2ccccn2)n1 , state its recorded IC50.
Data returned: 100 to 1000 nM

Data request: Please give the result for Cc1ncnn1-c1ccc(Nc2nn(-c3c(Cl)cccc3Cl)nc2C(N)=O)nc1 too.
Data returned: 10 to 100 nM

Data request: Param item: COCc1ncnn1-c1ccc(Nc2cn(-c3c(Cl)cccc3Cl)nc2C(N)=O)cc1
Data returned: 100 to 1000 nM

// data source = patent US20230373985A1
